Value source: PubChem BioAssay (NCI)

tested on: SK-MEL-2 melanoma; test: NCI tumour cell line growth inhibition, 48 h; in the data active = GI50 below about 0.43 µM; inactive = the rest
Give your call using only these classes: label 1 (active), label 0 (inactive)

Solved cases (4 shown):
| Molecule | Answer label |
| --- | --- |
| O=Cc1ccc(-c2ccc(-c3nc4ccccc4[nH]3)cc2)s1 | label 0 |
| C[C@H](N)C(=O)N[C@@H]1[C@H]2C(=C(O)C[C@@H](O)[C@@H]2O)C(=O)O[C@]1(C)C(Cl)Cl | label 1 |
| CCN(CC)CCCC(C)Nc1cc(-c2ccc(C(F)(F)F)cc2)c(C#N)c2nc3ccccc3n12 (configuration not stated) | label 0 |
| COC(=O)C(Cc1cnc[nH]1)NC(=O)CNC(=O)CCCn1c(=O)c2c3ccccc3n(C)c2n2nnc(-c3ccccc3)c12 (configuration not stated) | label 0 |

Fill in: this test's call for Cc1cccc(-c2nn3c(c2-c2ccnc4ccc(C(N)=O)cc24)CCC3)n1 is ___ label 0

Any idea what this test logged for CCOC(CCCNCCCn1c2c(c3cc(OC)c(OC)cc3c1=O)C(=O)c1cc3c(cc1-2)OCO3)OCC ? label 0
